In this section, each of the compounds is paired with its reported Emax.
Test Target: human orexin type 2 receptor (hOX2R) (Homo sapiens, UniProt O43614)
Construct: expressed in transfected cells
Sequence (O43614 1-444): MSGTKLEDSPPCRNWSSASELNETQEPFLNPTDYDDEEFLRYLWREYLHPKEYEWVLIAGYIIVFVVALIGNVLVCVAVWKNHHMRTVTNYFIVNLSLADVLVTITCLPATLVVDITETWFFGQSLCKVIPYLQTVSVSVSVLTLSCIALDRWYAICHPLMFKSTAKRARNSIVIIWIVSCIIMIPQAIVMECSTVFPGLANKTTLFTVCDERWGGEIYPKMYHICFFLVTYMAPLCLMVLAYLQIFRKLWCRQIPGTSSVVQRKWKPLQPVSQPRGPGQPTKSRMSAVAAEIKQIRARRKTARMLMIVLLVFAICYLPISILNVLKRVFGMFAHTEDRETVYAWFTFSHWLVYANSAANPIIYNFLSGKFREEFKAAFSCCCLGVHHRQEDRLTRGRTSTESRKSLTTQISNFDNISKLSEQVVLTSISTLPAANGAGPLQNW
Test: Measurement of orexin type 2 receptor agonist activity (FLIPR calcium fluorescence)
Format: cell-based
Measurement Conditions: CHO, CHO cells expressing hOX2R, FLIPR calcium fluorescence; read-out: hOx2 Emax (%)

Example cases with answers are listed next.
Q) Fill blank: measured Emax of the compound "O=C([C@H]1CCO1)N1CC2(CC2)[C@H](NS(=O)(=O)N2CCC2)[C@@H]1Cc1cccc(-c2ccccc2)c1" is ____.
A) 90 to 100%

Q) # query: Emax of entry "O=C(NCC1(F)CC1)N1CC2(CC2)[C@H](NS(=O)(=O)CF)[C@@H]1Cc1cccc(-c2cc(F)cc(F)c2)c1F"
A) 90 to 100%

Would you kindly look at the next entry?
Q) Could you tell me which Emax is on file for "C[C@H](CF)NC(=O)N1CC2(CC2)[C@H](NS(=O)(=O)C(F)F)[C@@H]1Cc1cc(F)cc(-c2ccccc2)c1F" ?
A) 90 to 100%

====

Test Target: human orexin type 2 receptor (hOX2R) (Homo sapiens, UniProt O43614)
Construct: expressed in transfected cells
Test: Measurement of orexin type 2 receptor agonist activity (FLIPR calcium fluorescence)
Assay type: cell-based
Measurement Conditions: CHO cells expressing hOX2R, FLIPR calcium fluorescence; read-out: hOx2 pEC50 (converted)
Property Measured: EC50

Worked cases, EC50 given:
Q) GET /values?readout=EC50&item= O=C([C@H]1CCO1)N1CC2(CC2)[C@H](NS(=O)(=O)CF)[C@@H]1Cc1cccc(-c2cccc(F)c2F)c1F [Compound 168]
A) 1 to 10 nM

Q) Please report the recorded EC50 for COCCNC(=O)N1CC2(CC2)[C@H](NS(C)(=O)=O)[C@@H]1Cc1cccc(-c2ccccc2)c1F (racemic) [Compound 306] .
A) 10 to 100 nM

Q) Given COC[C@@H](C)NC(=O)N1CC2(CC2)[C@H](NS(C)(=O)=O)[C@@H]1Cc1cccc(-c2ccccc2)c1F [Compound 325] , state its recorded EC50.
A) 1 to 10 nM

Let's switch to this molecule now.
Q) Any idea what EC50 was measured for O=C([C@H]1C[C@H](F)C1)N1CC2(CC2)[C@H](NS(=O)(=O)CF)[C@@H]1Cc1cccc(-c2ccccc2)c1F [Compound 188] ?
A) 1 to 10 nM

====

# EC50 per entry
Test Target: human orexin type 2 receptor (hOX2R) (Homo sapiens, UniProt O43614)
Construct: expressed in transfected cells
Test: Measurement of orexin type 2 receptor agonist activity (FLIPR calcium fluorescence)
Type: cell-based
Measurement Conditions: CHO cells expressing hOX2R, FLIPR calcium fluorescence; read-out: hOx2 pEC50 (converted)

Q) Tell me the measured EC50 of CCNC(=O)N1CC2(CC2)C(NS(C)(=O)=O)C1Cc1cccc(-c2ccccc2)c1OC (racemic) , please.
A) 1 to 10 nM

Q) For "O=C([C@@H](O)C(F)F)N1CC2(CC2)[C@H](NS(=O)(=O)C(F)F)[C@@H]1Cc1cccc(-c2ccccc2)c1F" , what is its reported EC50?
A) 1 to 10 nM

Q) // lookup EC50 for "C[C@@H](F)C(=O)N1CC2(CC2)[C@H](NS(=O)(=O)CF)[C@@H]1Cc1cc(F)cc(-c2ccccc2)c1F"
A) 1 to 10 nM

Q) # EC50 lookup, item CC(C)C(=O)N1CC2(CC2)[C@H](NS(=O)(=O)N(C)C)[C@@H]1Cc1cccc(-c2ccccc2)c1 (racemic)
A) 10 to 100 nM

Q) Fill in the blank: the reported EC50 of "COC1(CNC(=O)N2CC3(CC3)[C@H](NS(=O)(=O)C(F)F)[C@@H]2Cc2cccc(-c3ccccc3)c2F)CC1" is ____.
A) 0.0794 to 1 nM

More entries:
Q) Query: EC50; subject: "O=C([C@H]1CCO1)N1CC2(CC2)[C@H](NS(=O)(=O)C2CC2)[C@@H]1Cc1cccc(-c2ccccc2)c1"
A) 1 to 10 nM

Q) Which EC50 value is on record for "CS(=O)(=O)N[C@@H]1[C@H](Cc2cccc(-c3cccc(Cl)c3)c2F)N(C(=O)[C@H]2CCO2)CC12CC2" ?
A) 1 to 10 nM

Q) So what's the measured EC50 for this one? CS(=O)(=O)N[C@@H]1[C@H](Cc2cccc(-c3ccccc3)c2)N(C(=O)[C@H](O)C(F)(F)F)CC12CC2 [Compound 299]
A) 10 to 100 nM

Q) Fill blank: measured EC50 of the compound "C[C@H](F)C(=O)N1CC2(CC2)[C@H](NS(=O)(=O)CF)[C@@H]1Cc1cccc(-c2cc(F)cc(F)c2)c1F" is ____.
A) 0.0794 to 1 nM

Q) For the compound "O=C(NCC(F)(F)F)N1CC2(CC2)[C@H](NS(=O)(=O)C(F)F)[C@@H]1Cc1cccc(-c2ccccc2)c1F" , what EC50 is on record?
A) 1 to 10 nM

Q) EC50 for "O=C([C@H](O)C(F)F)N1CC2(CC2)[C@H](NS(=O)(=O)CF)[C@@H]1Cc1cc(F)cc(-c2ccccc2)c1F" ?
A) 1 to 10 nM

Q) I'd like to know its EC50. The compound in question is "C[C@@H](C#N)C(=O)N1CC2(CC2)[C@H](NS(C)(=O)=O)[C@@H]1Cc1cccc(-c2ccccc2)c1"
A) 10 to 100 nM

Q) I have this compound here, CS(=O)(=O)N[C@@H]1[C@H](Cc2cccc(-c3ccccc3)c2)N(C(=O)C23CC2C3)CC12CC2 (some centres unmarked) , and I need its recorded EC50.
A) 1 to 10 nM

Q) Recorded EC50 for "CC(C)NC(=O)N1CC2(CC2)[C@H](NS(C)(=O)=O)[C@@H]1Cc1cccc(-c2ccccc2)c1F" , please?
A) 0.0794 to 1 nM

====

This listing pairs molecules with measured Emax.
Test Target: human orexin type 2 receptor (hOX2R) (Homo sapiens)
Construct: expressed in transfected cells
Test: Measurement of orexin type 2 receptor agonist activity (FLIPR calcium fluorescence)
Type: cell-based
Measurement Conditions: CHO, CHO cells expressing hOX2R, FLIPR calcium fluorescence; read-out: hOx2 Emax (%)

Q) Requested field: Emax. Item: CS(=O)(=O)NC1C(Cc2cccc(-c3ccccc3)c2)N(C(=O)C(F)F)CC12CC2 (racemic)
A) 90 to 100%

Q) Which Emax reading was recorded for the molecule "CC(C)C(=O)N1CC2(CC2)[C@H](NS(C)(=O)=O)[C@@H]1Cc1cccc(-c2ccccc2)c1" ?
A) 90 to 100%

Q) What measured Emax goes with "[2H]C([2H])([2H])Oc1c(C[C@H]2[C@@H](NS(=O)(=O)CF)C3(CC3)CN2C(=O)NC([2H])([2H])C([2H])([2H])[2H])cccc1-c1ccccc1" ?
A) 80 to 90%

Q) Find the recorded Emax belonging to "CS(=O)(=O)N[C@@H]1[C@H](Cc2cccc(-c3cccc(F)c3)c2F)N(C(=O)[C@H]2CCO2)CC12CC2" and report it.
A) 90 to 100%

Q) I would be grateful if you could share the reported Emax for "O=C([C@H]1C[C@H](F)C1)N1CC2(CC2)[C@H](NS(=O)(=O)C(F)F)[C@@H]1Cc1cccc(-c2ccccc2)c1F" .
A) 90 to 100%

Q) Fill in the blank: the reported Emax of "CS(=O)(=O)N[C@@H]1[C@H](Cc2cccc(-c3ccccc3)c2F)N(C(=O)NC[C@H]2CCO2)CC12CC2" is ____.
A) 90 to 100%

====

Test Target: human orexin type 2 receptor (hOX2R) (Homo sapiens)
Construct: expressed in transfected cells
Sequence (O43614 1-444): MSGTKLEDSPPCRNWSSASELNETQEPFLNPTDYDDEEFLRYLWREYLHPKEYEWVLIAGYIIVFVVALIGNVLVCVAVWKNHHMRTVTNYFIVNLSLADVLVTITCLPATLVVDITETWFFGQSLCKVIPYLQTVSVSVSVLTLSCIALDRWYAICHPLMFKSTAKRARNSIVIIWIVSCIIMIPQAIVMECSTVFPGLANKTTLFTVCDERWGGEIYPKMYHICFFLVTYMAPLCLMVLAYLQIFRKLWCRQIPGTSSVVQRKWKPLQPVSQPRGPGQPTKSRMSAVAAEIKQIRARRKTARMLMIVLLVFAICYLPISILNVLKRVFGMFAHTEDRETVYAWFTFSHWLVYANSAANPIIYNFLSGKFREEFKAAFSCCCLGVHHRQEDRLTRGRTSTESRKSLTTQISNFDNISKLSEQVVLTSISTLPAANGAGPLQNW
Test: Measurement of orexin type 2 receptor agonist activity (FLIPR calcium fluorescence)
Format: cell-based
Measurement Conditions: CHO cells expressing hOX2R, FLIPR calcium fluorescence; read-out: hOx2 pEC50 (converted)
EC50 values for the molecules below.

Recorded EC50, per entry:
Q) Reported EC50 for CS(=O)(=O)NC1C(Cc2cccc(-c3ccccc3)c2F)N(C(=O)[C@H]2C[C@@H](F)C2)CC12CC2 (mixture of isomers) : what is it?
A) 10 to 100 nM

Q) Any idea what its EC50 is? The molecule is "CS(=O)(=O)N[C@H]1[C@@H](Cc2cccc(-c3cccc(F)c3)c2F)N(C(=O)N2CCC2)CC12CC2"
A) 10 to 100 nM

Q) For the molecule shown here, "CN(C)S(=O)(=O)N[C@@H]1[C@H](Cc2cccc(-c3ccccc3)c2F)N(C(=O)C2(O)CCC2)CC12CC2" , give the reported EC50.
A) 0.0794 to 1 nM

Q) Data request, read-out EC50, for "[2H]C([2H])([2H])N(C(=O)N1CC2(CC2)[C@H](NS(C)(=O)=O)[C@@H]1Cc1cc(F)cc(-c2ccccc2)c1F)C([2H])([2H])[2H]"
A) 10 to 100 nM

Q) Data request, read-out EC50, for "O=C([C@H]1CCO1)N1CC2(CC2)[C@H](NS(=O)(=O)C2CC2)[C@@H]1Cc1cccc(-c2ccccc2)c1F"
A) 0.0794 to 1 nM

Continuing:
Q) What EC50 value was documented for this molecule, CC(C)C(=O)N1CC2(CC2)C(NS(C)(=O)=O)C1Cc1cccc(-c2cccc(F)c2)c1 (racemic) ?
A) 1 to 10 nM

Q) Any idea what EC50 was measured for CC[C@@H](O)C(=O)N1CC2(CC2)C(NS(C)(=O)=O)C1Cc1cccc(-c2ccccc2)c1 (mixture of isomers) ?
A) 10 to 100 nM

Q) State the recorded EC50 for this entry: "CS(=O)(=O)N[C@@H]1[C@H](Cc2cc(F)cc(-c3ccccc3)c2F)N(C(=O)[C@H](O)C2CC2)CC12CC2"
A) 1 to 10 nM

Q) What does the data say about its EC50? Entry: CS(=O)(=O)NC1C(Cc2cccc(-c3cccc(F)c3)c2)N(C(=O)C2(O)CCC2)CC12CC2 (racemic)
A) 1 to 10 nM

Q) Consider the molecule shown here: "O=C([C@H](O)CF)N1CC2(CC2)[C@H](NS(=O)(=O)CF)[C@@H]1Cc1cccc(-c2cc(F)cc(F)c2)c1F" What is its recorded EC50?
A) 0.0794 to 1 nM

Q) Could you share which EC50 value was measured for "O=C([C@H]1C[C@H](F)C1)N1CC2(CC2)[C@H](NS(=O)(=O)C(F)F)[C@@H]1Cc1cccc(-c2ccccc2)c1F" ?
A) 1 to 10 nM

Q) Consider the molecule shown here: "[2H]c1c([2H])c([2H])c(-c2cccc(C[C@H]3[C@@H](NS(=O)(=O)C(F)F)C4(CC4)CN3C(=O)[C@H]3CCO3)c2F)c([2H])c1[2H]" What is its recorded EC50?
A) 1 to 10 nM

Q) What value of EC50 has been reported for the following molecule? "O=C(NCC(F)F)N1CC2(CC2)[C@H](NS(=O)(=O)CF)[C@@H]1Cc1cccc(-c2ccccc2)c1F"
A) 0.0794 to 1 nM
